test: physchem; details: pH 7.4
measured metric: solubility (µg/mL)

> print(dat)
                         compound.structure  reading
1  COc1ccc(S(=O)(=O)N(CC(=O)O)c2ccc(N(CC(=O)O)S(=O)(=O)c3ccc(OC)cc3)c(OCc3cccc(OC)c3)c2)cc1      379
2  COc1ccc(S(=O)(=O)N(CC(=O)O)c2ccc(N(CC(=O)O)S(=O)(=O)c3ccc(OC)cc3)c(OC(C)C)c2)cc1      288
3  COc1ccc(S(=O)(=O)N(CC(=O)O)c2ccc(N(CC(=O)O)S(=O)(=O)c3ccc(OC)cc3)c(-c3ccccc3)c2)cc1      298

* * *

assay: in vitro; settings: human, Cytotoxicity IC50 concentration
measured metric: IC50 (µM)

> print(dat)
                                   compound  measured.metric  unit.string  reading
1  C[S+]([O-])CCCCN=C=S (stereo not shown) [Sulforaphane, sulforaphane]             IC50           µM     9.89

* * *

system: ARPE19 retinal pigment epithelial cells; settings: human
measured metric: IC50

> print(dat)
                                  compound  reading
1  C[S+]([O-])CCCCN=C=S (stereo not shown)   ~10 µM

* * *

assay: physchem; details: pH 7.4
measured metric: solubility (µg/mL)

> print(dat)
                         compound.structure  censoring.operator  reading
1  COc1ccc(S(=O)(=O)N(CC(=O)O)c2ccc(N(CC(=O)O)S(=O)(=O)c3ccc(OC)cc3)c(OC)c2)cc1                   =      271
2  COc1ccc(S(=O)(=O)N(CC(N)=O)c2ccc(N(CC(N)=O)S(=O)(=O)c3ccc(OC)cc3)c(OCc3ccccc3)c2)cc1                   <       50
3  CCCCOc1cc(N(CC(=O)O)S(=O)(=O)c2ccc(OC)cc2)ccc1N(CC(=O)O)S(=O)(=O)c1ccc(OC)cc1                   =      362
4  COc1ccc(S(=O)(=O)N(Cc2nnn[nH]2)c2ccc(N(Cc3nnn[nH]3)S(=O)(=O)c3ccc(OC)cc3)c(OCc3ccccc3)c2)cc1                   <       50
5  COc1ccc(S(=O)(=O)N(CC(=O)O)c2ccc(N(CC(=O)O)S(=O)(=O)c3ccc(OC)cc3)c(OCc3ccccc3)c2)cc1                   =      348
6  COc1ccc(S(=O)(=O)N(CC(=O)O)c2ccc(N(CC(=O)O)S(=O)(=O)c3ccc(OC)cc3)c(O)c2)cc1                   =      343
